System: OVCAR-3
Experiment: NCI tumour cell line growth inhibition, 48 h
Calls of active or inactive are those of the source. No stated cut-off is given here; in the data, active = GI50 up to about 1.1 µM and inactive = higher. Where a SMILES comes first, the peptide text is derived from it. The star is where a group is joined. Fmoc = O=C(OCC1c2ccccc2-c2ccccc21)*; Boc = CC(C)(C)OC(=O)*
Entry note: the call must match one of active, inactive

Past entries and their recorded results:
[
  {
    "compound": "CC(C)(C)OC(=O)NCCCCC(NC(=O)OCC1c2ccccc2-c2ccccc21)C(=O)N1CCCC1C(=O)NCC(N)=O (stereo not drawn) (Fmoc-Lys(Boc)-Pro-Gly-NH2; configuration not given here)",
    "groupLabel": "inactive"
  },
  {
    "compound": "COc1cc2c(c(O)c1C)C(=O)C(Cl)=CC2=O",
    "groupLabel": "inactive"
  },
  {
    "compound": "c1ccc(C[N+]23C(CC[C@H]2c2ccccc2)CC[C@H]3c2ccccc2)cc1 (stereo not given in full)",
    "groupLabel": "inactive"
  }
]

q: Just curious, what result did CC12CC3(C)CC(C)(C1)CC(N=[N+]=[N-])(C2)C3 get here?
a: inactive

q: Just curious, what result did CCC(=O)NC(OCC1(CC)COC1)(C(F)(F)F)C(F)(F)F get here?
a: inactive

q: Just curious, what result did S=c1sc2ccccc2n1CN1CCN(Cc2ccccc2)CC1 get here?
a: inactive

q: Just curious, what result did CCN(CC)c1c(N(CC)CC)c(=O)c1=O get here?
a: inactive

----------
Test system: SN12C
Assay: NCI tumour cell line growth inhibition, 48 h
Calls of active or inactive are those of the source. Rule as the data show it: active = GI50 up to about 1.1 µM and inactive = higher.
measurementLabel: GI50

[
  {
    "compound": "O=C(O)C/C(=C\\c1ccccc1)C(=O)O",
    "testSystem": "SN12C",
    "GI50": "> 100 µM (inactive)"
  },
  {
    "compound": "Cc1ccc2nc3sc(=O)sc3nc2c1 [CHINOMETHIONAT]",
    "testSystem": "SN12C",
    "GI50": "15.5 µM (inactive)"
  },
  {
    "compound": "CCN(CC)N1C(=O)[N-][N+](CC)(CC)C1=O",
    "testSystem": "SN12C",
    "GI50": "> 100 µM (inactive)"
  },
  {
    "compound": "CCc1nc(N)nc(N)c1-c1ccc(Cl)c(/N=C/N(C)C)c1",
    "testSystem": "SN12C",
    "GI50": "91.4 µM (inactive)"
  }
]

q: Please indicate GI50 recorded for Cc1nc2ccccc2c(=O)n1/N=C(\N=N\c1cc(Cl)ccc1Cl)c1ccc(N(C)C)cc1
a: 58.6 µM (inactive)

q: Please indicate GI50 recorded for CCCN(CCCC(NC(C)=O)C(=O)NCc1ccccc1)C(=O)N(CCCl)N=O (stereo unspecified)
a: 15.8 µM (inactive)

----------
System: SF-295
Assay: NCI tumour cell line growth inhibition, 48 h
Active and inactive are the calls of the source. Rule as the data show it: active = GI50 up to about 1.1 µM and inactive = higher.
The following molecules are shown together with reported GI50 values.

The cases that follow already have their GI50 on record.
[
  {
    "molecule": "Nc1ccc2nc3c(nc2c1)C(=O)c1ccccc1-3",
    "GI50": "> 100 µM (inactive)"
  },
  {
    "molecule": "c1ccc(-c2nc(-c3ccccc3SSc3ccccc3-c3nc(-c4ccccc4)nn3-c3ccccc3)n(-c3ccccc3)n2)cc1",
    "GI50": "> 100 µM (inactive)"
  },
  {
    "molecule": "COC(=O)[C@@H]1C[C@H](c2ccc(OC)c(OC)c2)OC1=O.COC(=O)[C@H]1C[C@H](c2ccc(OC)c(OC)c2)OC1=O",
    "GI50": "> 100 µM (inactive)"
  },
  {
    "molecule": "CCOC(=O)C1=C(C)N(c2ccc(C)cc2)C2(O)C=CC(O)=C3C(=O)c4ccccc4C(=O)C312 (stereo not given)",
    "GI50": "68.1 µM (inactive)"
  },
  {
    "molecule": "COC1C=C(NCC2(CO)CCC2)N=C(N)N1 (stereo not given)",
    "GI50": "> 100 µM (inactive)"
  }
]

q: Please indicate GI50 recorded for CC1(C)CC2=NOS3=C2C(=NO3)C1c1ccccn1 (stereo not given)
a: > 100 µM (inactive)

q: Please indicate GI50 recorded for CN(C)CCNc1ccc2nnn3c4ccc(Cl)cc4c(=O)c1c23
a: 2.85 µM (inactive)

q: Please indicate GI50 recorded for CC(=O)OCC1=C(COC(C)=O)C(=O)c2c(O)ccc(O)c2C1=O
a: 13.4 µM (inactive)

q: Please indicate GI50 recorded for Cc1cc(=O)oc2cc(OC(=O)N(C)C)c(Cl)cc12
a: > 10 µM (inactive)

q: Please indicate GI50 recorded for O=C(Nc1ccccc1)c1cc(S(=O)(=O)N2CCNNC2=O)c(S)cc1Cl
a: > 100 µM (inactive)
